B1: LINE1-full (parent)
chain: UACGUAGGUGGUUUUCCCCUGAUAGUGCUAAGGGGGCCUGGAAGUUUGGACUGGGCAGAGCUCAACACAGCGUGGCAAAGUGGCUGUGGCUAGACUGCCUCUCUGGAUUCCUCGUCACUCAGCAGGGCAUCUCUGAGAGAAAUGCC

# Variants of: B1
# run-description: self-cleavage, relative activity (ratio to wild type); higher = more cleavage; in vitro, sequencing; the parent is a self-cleaving ribozyme
parameter: self-cleavage
// print number alone

INSERT INTO assay_data (mut, parameter, endpoint_value) VALUES
  ('G49A A142G', 'self-cleavage', 0.98),
  ('U87C G122U', 'self-cleavage', 0.3),
  ('A117G U130A', 'self-cleavage', 1.85);

Query block: So what's the measured self-cleavage for this one? U45A U108C
Result block: 1.48

Query block: // query self-cleavage value for entry A6G U115G
Result block: 2.04

Query block: Quick check: self-cleavage of A79G C110U ?
Result block: 2.15

Query block: Endpoint output: self-cleavage of A50U U119A . Value?
Result block: 0.83

Query block: Which self-cleavage is listed for U85G A138U ?
Result block: 0

Query block: Requested read-out: self-cleavage. Entry: G60A A142G
Result block: 0.04

Query block: Any idea what its self-cleavage is? The variant is U13A A121G
Result block: 0.88

Query block: Find the recorded self-cleavage belonging to A22G A92C and report it.
Result block: 0.12

Query block: Name the reported self-cleavage value associated with the variant A2U U100C
Result block: 0.95

Query block: Quick one: self-cleavage for A79G A92G ?
Result block: 0.18
